target: Estrogen Receptor (ERα) in MCF-7 human ductal carcinoma breast cell line (Homo sapiens, UniProt P03372); construct: endogenous in cells; host or cells: MCF-7; assay: MCF-7 ER degradation assay (cell based immuno-fluorescence); settings: MCF-7 cells, 18-22 hours incubation, 50% reduction of ERα expression; single experiment or average of two or more; read-out: MCF-7 ER degradation IC50
Friendly reminder: DC50 below 2 nM is true, at or above is false.

Answer whether the compound Cc1ncsc1-c1ccc(CNC(=O)[C@@H]2C[C@@H](O)CN2C(=O)[C@@H](NC(=O)CCCCCNCCCCOc2cc(F)c([C@@H]3c4[nH]c5ccccc5c4C[C@@H](C)N3CC(C)(C)F)c(F)c2)C(C)(C)C)cc1 [Example 145] has DC50 strictly less than 2 nM
false

Answer whether the compound Cc1ncsc1-c1ccc(CNC(=O)[C@@H]2C[C@@H](O)CN2C(=O)[C@@H](NC(=O)COCCc2ccc(COc3cc(F)c([C@@H]4c5[nH]c6ccccc6c5C[C@@H](C)N4CC(C)(C)F)c(F)c3)cc2)C(C)(C)C)cc1 [Example 53] has DC50 strictly less than 2 nM
false

====

Target: Estrogen Receptor (ERα) in MCF-7 human ductal carcinoma breast cell line (Homo sapiens, UniProt P03372)
Construct: endogenous in cells; host or cells: MCF-7
Sequence (P03372 1-595): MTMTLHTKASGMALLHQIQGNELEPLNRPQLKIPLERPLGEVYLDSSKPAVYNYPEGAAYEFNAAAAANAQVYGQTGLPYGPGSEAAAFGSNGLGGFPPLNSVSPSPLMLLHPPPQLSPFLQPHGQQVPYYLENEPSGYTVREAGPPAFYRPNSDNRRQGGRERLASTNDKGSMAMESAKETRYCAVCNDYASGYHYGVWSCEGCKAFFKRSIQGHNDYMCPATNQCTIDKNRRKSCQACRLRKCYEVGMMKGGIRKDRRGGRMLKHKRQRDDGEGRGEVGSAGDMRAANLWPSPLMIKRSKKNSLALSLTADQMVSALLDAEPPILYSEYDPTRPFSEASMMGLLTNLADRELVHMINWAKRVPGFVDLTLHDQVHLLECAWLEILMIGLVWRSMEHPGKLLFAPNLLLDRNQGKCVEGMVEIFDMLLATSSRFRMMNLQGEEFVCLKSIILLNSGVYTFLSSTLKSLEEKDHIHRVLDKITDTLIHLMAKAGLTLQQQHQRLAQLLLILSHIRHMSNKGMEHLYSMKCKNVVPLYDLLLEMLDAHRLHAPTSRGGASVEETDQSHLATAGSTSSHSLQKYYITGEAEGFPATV
Test: MCF-7 ER degradation assay (cell based immuno-fluorescence)
Settings: MCF-7 cells, 18-22 hours incubation, 50% reduction of ERα expression; single experiment or average of two or more; read-out: MCF-7 ER degradation IC50
This section presents molecules with their documented DC50 values.
Give your result in nM as a bare value.

Below, each entry is followed by its recorded DC50 result.
Chemical string	DC50 / nM
Cc1ncsc1-c1ccc(CNC(=O)[C@@H]2C[C@@H](O)CN2C(=O)[C@@H](NC(=O)COCCOCCNC(=O)/C=C/c2cc(F)c([C@@H]3c4[nH]c5ccccc5c4C[C@@H](C)N3CC(C)(C)F)c(F)c2)C(C)(C)C)cc1	0.4
Cc1ncsc1-c1ccc(CNC(=O)[C@@H]2C[C@@H](O)CN2C(=O)[C@@H](NC(=O)C(C)(C)OCCCCCCOc2cc(F)c([C@@H]3c4[nH]c5ccccc5c4C[C@@H](C)N3CC(C)(C)F)c(F)c2)C(C)(C)C)cc1	22

Give the reported DC50 for this molecule. Cc1ncsc1-c1ccc(CNC(=O)[C@@H]2C[C@@H](O)CN2C(=O)[C@@H](NC(=O)COCCCOCCOc2ccc([C@@H]3c4[nH]c5ccccc5c4C[C@@H](C)N3CC(F)F)nc2)C(C)(C)C)cc1
7.5

====

biological target: recombinant human Estrogen Receptor alpha ligand binding domain, residues 307-554 (ER alpha-LBD (GST)) (Homo sapiens); test: ERα binding assay (LanthaScreen TR-FRET competition); settings: TR-FRET competition with Fluormone ES2 tracer, 4 hours at room temperature; single experiment or average of two or more
Value type: pIC50
# pIC50: negative log10 of molar concentration; output just the value

Below, each entry is followed by its recorded pIC50 result.
Chemical string	Experimental value
Cc1ncsc1-c1ccc(CNC(=O)[C@@H]2C[C@@H](O)CN2C(=O)[C@@H](NC(=O)CCCCCCOCCCOc2cc(F)c([C@@H]3c4[nH]c5ccccc5c4C[C@@H](C)N3CC(C)(C)F)c(F)c2)C(C)(C)C)cc1	9.15
Cc1ncsc1-c1ccc(CNC(=O)[C@@H]2C[C@@H](O)CN2C(=O)[C@@H](NC(=O)COCCCCCN(CCOc2cc(F)c([C@@H]3c4[nH]c5ccccc5c4C[C@@H](C)N3CC(C)(C)F)c(F)c2)C(=O)OCc2ccccc2)C(C)(C)C)cc1	8.92
Cc1ncsc1-c1ccc([C@H](C)NC(=O)[C@@H]2C[C@@H](O)CN2C(=O)[C@@H](NC(=O)COCCCCCOc2cc(F)c([C@@H]3c4[nH]c5ccccc5c4C[C@@H](C)N3CC(C)(C)F)c(F)c2)C(C)(C)C)cc1	9.10
Cc1ncsc1-c1ccc(CNC(=O)[C@@H]2C[C@@H](O)CN2C(=O)[C@@H](NC(=O)COCCCCOc2cc(F)c([C@@H]3c4[nH]c5ccccc5c4C[C@@H](C)N3CC(C)(C)F)c(F)c2)C(C)(C)C)cc1	9.05

From here, focus on the item given below.
Give the reported pIC50 for this compound. Cc1ncsc1-c1ccc(CNC(=O)[C@@H]2C[C@@H](O)CN2C(=O)[C@@H](NC(=O)c2ccc(COc3cc(F)c([C@@H]4c5[nH]c6ccccc6c5C[C@@H](C)N4CC(C)(C)F)c(F)c3)cc2)C(C)(C)C)cc1
9.00

====

target: Estrogen Receptor (ERα) in MCF-7 human ductal carcinoma breast cell line (Homo sapiens, UniProt P03372); construct: endogenous in cells; host or cells: MCF-7; assay: MCF-7 ER degradation assay (cell based immuno-fluorescence); settings: MCF-7 cells, 18-22 hours incubation, 50% reduction of ERα expression; single experiment or average of two or more; read-out: MCF-7 ER degradation IC50
Friendly reminder: DC50 below 1 nM is fulfilled, at or above is not fulfilled.

Chemical string	Qualitative label
Cc1ncsc1-c1ccc(CNC(=O)[C@@H]2C[C@@H](O)CN2C(=O)[C@@H](NC(=O)COCCOCCOCCOc2cc(F)c([C@@H]3c4[nH]c5ccccc5c4C[C@@H](C)N3CC(F)(F)F)c(F)c2)C(C)(C)C)cc1	fulfilled
Cc1ncsc1-c1ccc(CNC(=O)[C@@H]2C[C@@H](O)CN2C(=O)[C@@H](NC(=O)COCCOCCOCCCNC(=O)c2cc(F)c([C@@H]3c4[nH]c5ccccc5c4C[C@@H](C)N3CC(C)(C)F)c(F)c2)C(C)(C)C)cc1	fulfilled
Cc1ncsc1-c1ccc(CNC(=O)[C@@H]2C[C@@H](O)CN2C(=O)[C@@H](NC(=O)C(F)(F)OCCCCCCOc2cc(F)c([C@@H]3c4[nH]c5ccccc5c4C[C@@H](C)N3CC(C)(C)F)c(F)c2)C(C)(C)C)cc1	not fulfilled

Next, consider the following compound.
Answer whether the compound Cc1ncsc1-c1ccc(CNC(=O)[C@@H]2C[C@@H](O)CN2C(=O)[C@@H](NC(=O)COCCOCCCCCOc2cc(F)c([C@@H]3c4[nH]c5ccccc5c4C[C@@H](C)N3CC(C)(F)F)c(F)c2)C(C)(C)C)cc1 has DC50 strictly less than 1 nM
fulfilled

====

This section presents molecules with their documented DC50 values.
molecular target: Estrogen Receptor (ERα) in MCF-7 human ductal carcinoma breast cell line (Homo sapiens, UniProt P03372); construct: endogenous in cells; host or cells: MCF-7; test: MCF-7 ER degradation assay (cell based immuno-fluorescence); settings: MCF-7 cells, 18-22 hours incubation, 50% reduction of ERα expression; single experiment or average of two or more; read-out: MCF-7 ER degradation IC50
Give your result in nM as a bare value.

Below, each entry is followed by its recorded DC50 result.
Chemical string	Uom	Experimental value
Cc1ncsc1-c1ccc([C@H](C)NC(=O)[C@@H]2C[C@@H](O)CN2C(=O)[C@@H](NC(=O)COCCCOCCCOc2cc(F)c([C@@H]3c4[nH]c5ccccc5c4C[C@@H](C)N3CC(C)(C)F)c(F)c2)C(C)(C)C)cc1	nM	0.8
Cc1ncsc1-c1ccc(CNC(=O)[C@@H]2C[C@@H](O)CN2C(=O)[C@@H](NC(=O)COCCCCCOc2cc(F)c([C@@H]3c4[nH]c5ccccc5c4C[C@@H](C)N3CC3(F)CC3)c(F)c2)C(C)(C)C)cc1	nM	2
Cc1ncsc1-c1ccc(CNC(=O)[C@@H]2C[C@@H](O)CN2C(=O)[C@@H](NC(=O)COCc2ccnc(COc3cc(F)c([C@@H]4c5[nH]c6ccccc6c5C[C@@H](C)N4CC(C)(C)F)c(F)c3)c2)C(C)(C)C)cc1	nM	0.5
Cc1ncsc1-c1ccc(CNC(=O)[C@@H]2C[C@@H](O)CN2C(=O)[C@@H](NC(=O)COCCCCCCCOc2ccc([C@@H]3c4[nH]c5ccccc5c4C[C@@H](C)N3CC(F)F)nc2)C(C)(C)C)cc1	nM	3.6
Cc1ncsc1-c1ccc(CNC(=O)[C@@H]2C[C@@H](O)CN2C(=O)[C@@H](NC(=O)COCCCCCOCCOc2cc(F)c([C@@H]3c4[nH]c5ccccc5c4C[C@@H](C)N3CC(C)(C)F)c(F)c2)C(C)(C)C)cc1	nM	0.7

Give the reported DC50 for this molecule. Cc1ncsc1-c1ccc(CNC(=O)[C@@H]2C[C@@H](O)CN2C(=O)[C@@H](NC(=O)CCCCOCCCCCOc2cc(F)c([C@@H]3c4[nH]c5ccccc5c4C[C@@H](C)N3CC(C)(C)F)c(F)c2)C(C)(C)C)cc1
0.9

Give the reported DC50 for this molecule. Cc1ncsc1-c1ccc(CNC(=O)[C@@H]2C[C@@H](O)CN2C(=O)[C@@H](NC(=O)COCCOCCCCCOc2cc(F)c([C@@H]3c4[nH]c5ccccc5c4C[C@@H](C)N3CC(C)(C)F)c(F)c2)C(C)(C)C)cc1
0.8

Give the reported DC50 for this molecule. Cc1ncsc1-c1ccc(CNC(=O)[C@@H]2C[C@@H](O)CN2C(=O)[C@@H](NC(=O)COCCOCCOCCOc2cc(F)c([C@@H]3c4[nH]c5ccccc5c4C[C@@H](C)N3C[C@H](C)CO)c(F)c2)C(C)(C)C)cc1
1.8

Give the reported DC50 for this molecule. Cc1ncsc1-c1ccc(CNC(=O)[C@@H]2C[C@@H](O)CN2C(=O)[C@@H](NC(=O)C(F)(F)OCCOCCCCOc2cc(F)c([C@@H]3c4[nH]c5ccccc5c4C[C@@H](C)N3CC(C)(C)F)c(F)c2)C(C)(C)C)cc1
2.6

Give the reported DC50 for this molecule. Cc1ncsc1-c1ccc(CNC(=O)[C@@H]2C[C@@H](O)CN2C(=O)[C@@H](NC(=O)CN2CCC3(CCN(CCOc4cc(F)c([C@@H]5c6[nH]c7ccccc7c6C[C@@H](C)N5CC(C)(C)F)c(F)c4)CC3)CC2)C(C)(C)C)cc1
4.8

Source: patent US10519152B2
